In this section, each of the compounds is paired with its reported Purity.
- Measurement Protocol: Solid-state stability study under accelerated storage conditions (XRPD form change, HPLC purity)
- Type: physicochemical
- Experimental Setup: 25° C./97% RH, 7 days; HPLC
Report the figure in % without appending any unit label.

Solved cases (4 shown):
Smiles Representation	Measured Property	Observed
O=C(O)c1ccc(O)cc1O.O=C(c1cc(Cc2n[nH]c(=O)c3ccccc23)ccc1F)N1CCN(C(=O)C2CC2)CC1	Purity	99.22
O=C(O)c1ccc(O)cc1O.O=C(c1cc(Cc2n[nH]c(=O)c3ccccc23)ccc1F)N1CCN(C(=O)C2CC2)CC1.O=C(c1cc(Cc2n[nH]c(=O)c3ccccc23)ccc1F)N1CCN(C(=O)C2CC2)CC1	Purity	99.64
O=C(O)c1cc(O)ccc1O.O=C(c1cc(Cc2n[nH]c(=O)c3ccccc23)ccc1F)N1CCN(C(=O)C2CC2)CC1	Purity	99.79
O=C(O)c1ccc(O)cc1.O=C(c1cc(Cc2n[nH]c(=O)c3ccccc23)ccc1F)N1CCN(C(=O)C2CC2)CC1.O=C(c1cc(Cc2n[nH]c(=O)c3ccccc23)ccc1F)N1CCN(C(=O)C2CC2)CC1	Purity	99.69

Exercise: Which Purity reading was recorded for the compound `O=C(O)c1cc(O)ccc1O.O=C(c1cc(Cc2n[nH]c(=O)c3ccccc23)ccc1F)N1CCN(C(=O)C2CC2)CC1.O=C(c1cc(Cc2n[nH]c(=O)c3ccccc23)ccc1F)N1CCN(C(=O)C2CC2)CC1` ?
Solution: 99.64

* * *

- Measurement Protocol: Solid-state stability study under accelerated storage conditions (XRPD form change, HPLC purity)
- Format: physicochemical
- Experimental Setup: 40° C./75 RH, 7 days; HPLC
Measured Property: Purity (%)
Give the value, in units of %, as a plain number.

Exercise: What value of Purity has been reported for the following molecule? `O=C(O)c1ccc(O)cc1O.O=C(c1cc(Cc2n[nH]c(=O)c3ccccc23)ccc1F)N1CCN(C(=O)C2CC2)CC1.O=C(c1cc(Cc2n[nH]c(=O)c3ccccc23)ccc1F)N1CCN(C(=O)C2CC2)CC1`
Solution: 99.45

Exercise: Sample `O=C(O)c1cc(O)ccc1O.O=C(c1cc(Cc2n[nH]c(=O)c3ccccc23)ccc1F)N1CCN(C(=O)C2CC2)CC1` — what was its Purity?
Solution: 99.70

Exercise: Can you look up the measured Purity of `O=C(O)c1ccc(O)cc1O.O=C(c1cc(Cc2n[nH]c(=O)c3ccccc23)ccc1F)N1CCN(C(=O)C2CC2)CC1` for me?
Solution: 99.43

Exercise: Query (molecule): `O=C(O)c1ccc(O)cc1.O=C(c1cc(Cc2n[nH]c(=O)c3ccccc23)ccc1F)N1CCN(C(=O)C2CC2)CC1.O=C(c1cc(Cc2n[nH]c(=O)c3ccccc23)ccc1F)N1CCN(C(=O)C2CC2)CC1` ; field requested: Purity
Solution: 99.70

Exercise: Which Purity is reported for this molecule? `O=C(O)c1cc(O)ccc1O.O=C(c1cc(Cc2n[nH]c(=O)c3ccccc23)ccc1F)N1CCN(C(=O)C2CC2)CC1.O=C(c1cc(Cc2n[nH]c(=O)c3ccccc23)ccc1F)N1CCN(C(=O)C2CC2)CC1`
Solution: 99.59
